tested on: VRK2; conditions: concentration: 1 μM, replicates: in singlicate; n = 1;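 further: KINOMEscan kinase panel screen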

compound | scaleUnit | %Inh
Cc1ccc(O)cc1Nc1ccnc2cc(-c3ccc(CN4CCCCC4)o3)ccc12 | % | 0
CCOc1nccc(-c2c(-c3ccc(F)cc3)ncn2C2CCNCC2)n1 | % | 51
Cc1cccc(Nc2nc(NCCN)ncc2C(N)=O)c1 | % | 18
COC(=O)Nc1nc2ccc(Oc3ccc(NC(=O)Nc4cc(C(F)(F)F)ccc4F)cc3)cc2[nH]1.Cl | % | 0
Nc1ncnc2scc(-c3ccc(NC(=O)Cc4cc(F)ccc4F)cc3)c12.O=C(O)C(F)(F)F | % | 0
c1ccc(Oc2ccc(Nc3ccnc4cc(-c5ccc(CN6CCCCC6)o5)ccc34)cc2)nc1 | % | 14
CC(C)(C)c1ccc(C(=O)Nc2cn3cc(-n4ccnc4)ccc3n2)cc1 | % | 0
COc1cc(Nc2nccc(N3CCC(NC(=O)Nc4ccc5c(c4)OCO5)C3)n2)cc(OC)c1OC (stereo not shown) | % | 0
Cc1cc(-c2c(-c3ccc(F)cc3)ncn2CCCN2CCOCC2)nc(N)n1 | % | 0
CN1CCN(Cc2ccc(NC(=O)Nc3ccc(N(C)c4ccnc(Nc5ccc(CS(C)(=O)=O)cc5)n4)cc3)cc2)CC1.Cl | % | 65
O=C(Nc1n[nH]c2nc(-c3ccccc3)ccc12)C1CC1 | % | 47
COC(=O)Nc1nc2ccc(Oc3ccc(CC(=O)Nc4cc(C(F)(F)F)ccc4F)cc3)cc2[nH]1 | % | 13
CCNC(=O)/C=C/c1n[nH]c2cc(Sc3ccccc3C(=O)NC)ccc12 | % | 14
Nc1ncc(-c2ccc3nccc(-c4ccncc4)c3c2)cc1S(=O)(=O)N1CCCCC1 | % | 2
O=C(Nc1n[nH]c2nc(-c3ccccc3O)ccc12)C1CC1 | % | 0
N#CC1(c2cccc(C(=O)Nc3cccc(Oc4ccc5nc(NC(=O)C6CC6)sc5n4)c3)c2)CC1 | % | 19
Cl.Cl.NCC(NC(=O)c1cc(-c2cccnc2)c(-c2ccnc3[nH]ccc23)s1)c1ccccc1 (stereo not shown) | % | 15
Cn1cc(-c2ccc3c(c2)CCN3C(=O)Cc2cc(F)cc(F)c2F)c2c(N)ncnc21 | % | 27
Cl.N#CCc1ccc(Nc2nccc(Nc3ccc(Oc4ccccc4)cc3)n2)cc1 | % | 24
Cc1ccc(C)c(NC(=O)Nc2ccc(C)c(-c3ccc(C(=O)Nc4ccncc4)cc3)c2)c1 | % | 0
Fc1cc(Cl)ccc1Nc1ccnc2cc(-c3ccc(CN4CCOCC4)o3)ccc12 | % | 27
CCNc1nccc(-c2c(-c3ccc(F)cc3)ncn2C2CCN(C)CC2)n1 | % | 0
CN(C)CCOc1ccc(-c2cc(-c3ccc(Cl)c(O)c3)c(-c3ccncc3)[nH]2)cc1.Cl.Cl | % | 45
CN(c1ccc(NC(=O)N2CCN(CCCN3CCOCC3)CC2)cc1)c1ccnc(Nc2ccc(CS(C)(=O)=O)cc2)n1.Cl | % | 0
COc1ccc(C)c(Nc2ccnc(Nc3ccc(-c4cnc[nH]4)cc3)n2)c1.Cl | % | 0
CN(C)CCNS(=O)(=O)c1ccc(-c2ccnc3[nH]ccc23)cc1 | % | 0
CSc1ccc(NC2=C(c3ccc(Cl)cc3)C(=O)NC2=O)cc1 | % | 13
Cl.Cl.NC(CNC(=O)c1cc(Br)c(-c2ccnc3[nH]ccc23)s1)c1ccccc1 (stereo not shown) | % | 67

---

test system: FLT1; settings: concentration: 1 μM, replicates: in singlicate; n = 1

compound | scaleUnit | %Inh
O=C(Nc1n[nH]c2nc(-c3cccc(O)c3)ccc12)C1CC1 | % | 10
COC(=O)Nc1nc2cc(Oc3ccc(NC(=O)Nc4cccc(SC)c4)cc3)ccc2[nH]1.Cl | % | 98.9
CS(=O)(=O)c1cccc(CNc2nc(Nc3ccc4c(c3)CCC(=O)N4)ncc2C(F)(F)F)c1 | % | 77
CCn1cnc2c(NCc3ccccc3)ncnc21 | % | 0
O=C1NC(=O)C(c2ccccc2Cl)=C1Nc1cccc(Cl)c1 | % | 11
Cl.N#CCc1ccc(Nc2nccc(Nc3ccc(Oc4ccccc4)cc3)n2)cc1 | % | 43
COc1cccc(C2=C(Nc3cccc(O)c3)C(=O)NC2=O)c1 | % | 22
Cl.Cl.NCC(NC(=O)c1cc(-c2cccnc2)c(-c2ccnc3[nH]ccc23)s1)c1ccccc1 (centres unmarked) | % | 17
Cc1cc(-c2c(-c3ccc(F)cc3)ncn2CCCN2CCOCC2)nc(N)n1 | % | 0
Cc1cc(-c2ccnc(Nc3cccc(C#N)c3)n2)cc(C)c1O | % | 27
COc1cc(Nc2nccc(N3CCC(NS(=O)(=O)c4ccc(NC(C)=O)cc4)CC3)n2)cc(OC)c1OC | % | 53
CN(C)c1ncnc2nc[nH]c12 | % | 0
CCOc1nccc(-c2c(-c3ccc(F)cc3)ncn2C2CCNCC2)n1 | % | 18
O=C(Nc1n[nH]c2nc(-c3ccccc3O)ccc12)C1CC1 | % | 3
CN(c1ccc(NC(=O)N2CCN(CCCN3CCOCC3)CC2)cc1)c1ccnc(Nc2ccc(CS(C)(=O)=O)cc2)n1.Cl | % | 73
CSc1ccc(NC2=C(c3ccc(Cl)cc3)C(=O)NC2=O)cc1 | % | 5
COc1cc(Nc2nccc(N3CCC(NC(=O)Nc4ccc5c(c4)OCO5)C3)n2)cc(OC)c1OC (centres unmarked) | % | 26
Cl.O=C(Nc1ccc(Oc2ccc3[nH]c(NC(=O)c4ccco4)nc3c2)cc1)Nc1cc(C(F)(F)F)ccc1F | % | 98.5
O=C(Nc1n[nH]c2nc(-c3ccccc3)ccc12)C1CC1 | % | 11
CN(c1ccc2c(c1)nc(NCc1ccccc1)n2C)c1ccnc(Nc2ccc(CS(C)(=O)=O)cc2)n1.Cl | % | 96.9
COc1ccc(C2=C(Nc3cccc(O)c3)C(=O)NC2=O)cc1 | % | 5
Cc1nn2c(=O)cc(N3CCO[C@H](C)C3)nc2n1Cc1cccc(Cl)c1Cl | % | 33
NCCC(NC(=O)c1cc(Br)c(-c2ccnc3[nH]ccc23)s1)c1ccccc1.O=C(O)C(F)(F)F.O=C(O)C(F)(F)F (centres unmarked) | % | 73
COC(=O)Nc1nc2ccc(Oc3ccc(CC(=O)Nc4cc(C(F)(F)F)ccc4F)cc3)cc2[nH]1 | % | 93
Cc1ccc(Nc2ccnc(Nc3ccc(C)c(F)c3)n2)cc1O.Cl | % | 46
Nc1ncc(-c2cn[nH]c2)c2scc(-c3ccc4c(c3)CCN4C(=O)Cc3ccccc3)c12 | % | 83
Cn1cc(-c2ccc3c(c2)CCN3C(=O)Cc2cc(F)cc(C(F)(F)F)c2)c2c(N)ncnc21 | % | 39
CN(c1ccc(F)c(NC(=O)c2cccc(OC(C)(C)C#N)c2Cl)c1)c1ccc2nc(NC(=O)C3CC3)sc2n1 | % | 95.8
CN(c1ccc(NC(=O)Nc2cccc(Cl)c2)cc1)c1ccnc(N)n1.Cl | % | 97.1
Cc1cccc(Nc2nc(N[C@H]3CCCC[C@H]3N)ncc2C(N)=O)c1.Cl | % | 43
COc1cccc(CC(=O)N2CCc3cc(-c4cn(C)c5ncnc(N)c45)ccc32)c1 | % | 59
CN1CCN(Cc2ccc(NC(=O)Nc3ccc(N(C)c4ccnc(Nc5ccc(CS(C)(=O)=O)cc5)n4)cc3)cc2)CC1.Cl | % | 99.8

---

Listed here: items and their measured %Inh.
tested on: GRK7; conditions: concentration: 1 μM, replicates: in singlicate; n = 1

structureString | %Inh
CCn1c(-c2nonc2N)nc2c(-c3ccccc3)ncc(OCCCN)c21.O=C(O)C(F)(F)F.O=C(O)C(F)(F)F | 0%
COc1cccc(CC(=O)N2CCc3cc(-c4cn(C)c5ncnc(N)c45)ccc32)c1 | 0%
COc1cccc(C2=C(Nc3cccc(O)c3)C(=O)NC2=O)c1 | 100%
Nc1ncc(-c2ccc3nccc(-c4ccncc4)c3c2)cc1S(=O)(=O)N1CCCCC1 | 11%
Cc1ccc(O)cc1Nc1ccnc2cc(-c3ccc(CN4CCCCC4)o3)ccc12 | 0%
Cc1ccccc1CC(=O)N1CCc2cc(-c3cn(C)c4ncnc(N)c34)ccc21 | 0%
COc1ccc(NC(=O)c2ccoc2)cc1-c1ccc(C(=O)NCC2CC2)cc1 | 0%
CCNC(=O)/C=C/c1n[nH]c2cc(Sc3ccccc3C(=O)NC)ccc12 | 0%
Cn1cc(-c2ccc3c(c2)CCN3C(=O)Cc2cc(F)cc(F)c2F)c2c(N)ncnc21 | 0%
COC(=O)Nc1nc2ccc(Oc3ccc(CC(=O)Nc4cc(C(F)(F)F)ccc4F)cc3)cc2[nH]1 | 0%

---

system: MAP4K3; conditions: concentration: 1 μM, replicates: in singlicate; n = 1
Listed here: items and their measured %Inh.
quantityMeasured: %Inh (%)

compound | assayedSystem | readoutNumber
c1ccc(Oc2ccc(Nc3ccnc4cc(-c5ccc(CN6CCCCC6)o5)ccc34)cc2)nc1 [GW567143] | MAP4K3 | 0
Nc1cccc(-c2ccc3c(N)n[nH]c3c2)c1 [GSK2193613] | MAP4K3 | 1
Cl.Cl.NC(CNC(=O)c1cc(Br)c(-c2ccnc3[nH]ccc23)s1)c1ccccc1 (stereo not drawn) [GSK1322949] | MAP4K3 | 20
Cc1cc(-c2c(-c3ccc(F)cc3)ncn2CCCN2CCOCC2)nc(N)n1 [SB-222517] | MAP4K3 | 5
O=C(Nc1n[nH]c2nc(-c3ccccc3)ccc12)C1CC1 [SB-708999] | MAP4K3 | 1
CN(C)CCOc1ccc(-c2cc(-c3ccc(Cl)c(O)c3)c(-c3ccncc3)[nH]2)cc1.Cl.Cl [SB-684387] | MAP4K3 | 0

Values were extracted from paper PMC5540273.
